# Test system: P. aeruginosa Stone 130
# METHOD_NOTES: In vitro MIC, Broth Dilution Method, P. aeruginosa Stone 130
# Assay type: cell-based
# CONDITIONS: Pseudomonas aeruginosa, STONE130
Counter-ions that a name gives are not always drawn.
MEASURE_NAME: MIC (µg/mL)
Give the value, in units of µg/mL, as a plain number.

Examples with their reported MIC follow.
COMPOUND	MIC, µg/mL
CCn1cc(C(=O)OCC2=C(C(=O)O)N3C(=O)[C@@H](NC(=O)/C(=N\OC)c4csc(N)n4)[C@H]3SC2)c(=O)c2ccc(C)nc21 [Compound C, sodium salt]	128
CCn1cc(C(=O)OCC2=C(C(=O)O)N3C(=O)[C@@H](NC(=O)/C(=N\OC)c4csc(N)n4)[C@H]3SC2)c(=O)c2cc3c(cc21)OCO3 [Compound D, sodium salt]	16
CCn1cc(C(=O)OCC2=C(C(=O)O)N3C(=O)[C@@H](NC(=O)Cc4cccs4)[C@H]3SC2)c(=O)c2cc(F)c(N3CCN(C=O)CC3)cc21 [Compound G, sodium salt]	32
CCn1cc(C(=O)OCC2=C(C(=O)O)N3C(=O)[C@@H](NC(=O)Cc4cccs4)[C@H]3SC2)c(=O)c2cc3c(cc21)OCO3 [Compound F, sodium salt]	32

[ask] Entry CCn1cc(C(=O)OCC2=C(C(=O)O)N3C(=O)[C@@H](NC(=O)/C(=N\OC)c4csc(N)n4)[C@H]3SC2)c(=O)c2cc(F)c(N3CCCC3)cc21 [Compound I, sodium salt] : reported MIC = ?
[reply] 8

----------
Measured MIC of individual entries
# System: P. aeruginosa Stone 130
# METHOD_NOTES: In vitro MIC, Broth Dilution Method, P. aeruginosa Stone 130
# Assay type: cell-based
# CONDITIONS: Pseudomonas aeruginosa, STONE130
Structures can show the parent of a compound that is named as a salt.
Give the value, in units of µg/mL, as a plain number.

Examples with their reported MIC follow.
COMPOUND	SYSTEM_UNDER_TEST	MIC / µg/mL
CCn1cc(C(=O)OCC2=C(C(=O)O)N3C(=O)[C@@H](NC(=O)COc4ccccc4)[C@H]3SC2)c(=O)c2cc(F)c(N3CCCC3)cc21 [Compound H, sodium salt]	P. aeruginosa Stone 130	32
CCn1cc(C(=O)OCC2=C(C(=O)O)N3C(=O)[C@@H](NC(=O)COc4ccccc4)[C@H]3SC2)c(=O)c2cc(F)c(N3CCN(C=O)CC3)cc21 [Compound E, sodium salt]	P. aeruginosa Stone 130	16
CCn1cc(C(=O)OCC2=C(C(=O)O)N3C(=O)[C@@H](NC(=O)COc4ccccc4)[C@H]3SC2)c(=O)c2ccc(C)nc21 [Compound A, hydrate]	P. aeruginosa Stone 130	128

Next compound, please.
[ask] Entry CCn1cc(C(=O)OCC2=C(C(=O)O)N3C(=O)[C@@H](NC(=O)COc4ccccc4)[C@H]3SC2)c(=O)c2cc3c(cc21)OCO3 [Compound B, monosodium salt] : reported MIC = ?
[reply] 32
